Measured Target: HiBit-KRAS^G12C (Homo sapiens, UniProt P01116, G12C)
Sequence (P01116 1-186 isoform P01116-2 G12C limits assumed): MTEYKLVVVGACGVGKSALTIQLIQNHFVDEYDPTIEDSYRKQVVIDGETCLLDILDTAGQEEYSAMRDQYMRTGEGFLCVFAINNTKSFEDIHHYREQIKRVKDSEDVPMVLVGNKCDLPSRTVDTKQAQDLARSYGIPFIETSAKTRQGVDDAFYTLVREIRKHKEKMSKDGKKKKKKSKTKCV
Assay Comment: HiBit degradation assay in SW1573 HiBit-KRas^G12C cells
Assay type: cell-based
Set-up: expressed in transfected cells; host or cells: SW1573 (clone E6), modified pcDNA3.1 vector, TK promoter
Reported Conditions: SW1573, read-out: KRas^G12C-HiBit (SW1573; 0.1% DMSO) Dmax**, SW1573 HiBit-KRas^G12C, 0.1% DMSO, 24 hours
Readout: Dmax

In: # value lookup — system HiBit-KRAS^G12C (Homo sapiens, UniProt P01116, G12C), readout Dmax, item C=CC(=O)N1CCN(c2nc(O[C@@H]3CCC[C@H]3N3CCC(COCC(=O)N[C@H](C(=O)N4C[C@H](O)C[C@H]4C(=O)N[C@@H](C)c4ccc(-c5scnc5C)cc4)C(C)(C)C)CC3)nc3c(F)c(-c4cc(O)cc5ccccc45)c(Cl)cc23)CC1
Out: 35 to 70%

In: Query C=CC(=O)N1CCN(c2nc(O[C@H](C)CN3CCN(CCOC4CCN(CC(=O)N[C@H](C(=O)N5C[C@H](O)C[C@H]5C(=O)N[C@@H](C)c5ccc(-c6scnc6C)cc5)C(C)(C)C)CC4)CC3)nc3c(F)c(-c4cc(O)cc5ccccc45)c(Cl)cc23)CC1 next
Out: < 35%

---

Measured Target: HiBit-KRAS^G12C (Homo sapiens, UniProt P01116, G12C)
Assay Comment: HiBit degradation assay in MiaPaCa-2 HiBit-KRas^G12C cells
Format: cell-based
Reported Conditions: read-out: KRas^G12C-HiBiT (MiaPaCa; 0.5% DMSO) IC50; MiaPaCa-2 HiBit-KRas^G12C cells; 0.5% DMSO; 24 hours
Readout: DC50

In: Report DC50 for C=C(F)C(=O)N1CCN(c2nc(OCCN3CCC(COc4cc([C@H](C(=O)N5C[C@H](O)C[C@H]5C(=O)N[C@@H](C)c5ccc(-c6scnc6C)cc5)C(C)C)on4)CC3)nc3c(F)c(-c4cc(O)cc5ccccc45)c(Cl)cc23)C[C@@H]1CC#N (atropisomer, axis not shown) [Compound 167] please.
Out: < 100 nM

In: Query C=CC(=O)N1CCN(c2nc(OCCN3CCC(COCC(=O)N[C@H](C(=O)N4C[C@H](O)C[C@H]4C(=O)N[C@@H](C)c4ccc(-c5scnc5C)cc4)C(C)(C)C)CC3)nc3c(F)c(-c4nc(N)cc5ccccc45)c(Cl)cc23)C[C@@H]1CC#N [Compound 111] next
Out: 100 to 1000 nM

In: Query C=C(F)C(=O)N1CCN(c2nc(OCCN3CCC4(CC3)CN(c3cc([C@@H](C(=O)N5C[C@H](O)C[C@H]5C(=O)N[C@@H](C)c5ccc(-c6ccnn6C)cc5)C(C)C)on3)C4)nc3c(F)c(-c4cc(O)cc5ccccc45)c(Cl)cc23)C[C@@H]1CC#N (atropisomer, axis not shown) [Compound 103] next
Out: > 1000 nM

In: Query C=CC(=O)N1CCN(c2nc(O[C@@H]3CCC[C@H]3N3CCC(COCC(=O)N[C@H](C(=O)N4C[C@H](O)C[C@H]4C(=O)N[C@@H](C)c4ccc(-c5scnc5C)cc4)C(C)(C)C)CC3)nc3c(F)c(-c4cc(O)cc5ccccc45)c(Cl)cc23)C[C@@H]1CC#N [Compound 130] next
Out: 100 to 1000 nM

Value source: patent US20220370416A1
